# testMethodNotes: Clinical pharmacokinetics, plasma LC-MS/MS after single oral dose of AP capsules
# Type: in vivo, human (healthy volunteers)
# assaySetup: human, plasma, oral, 2000 mg, S5; 2.50 h; 2000 mg AP capsules; read-out: Plasma concentration
Answer each item with its documented concentration at 2.5 h.
One number for each entry, in ng/mL.

> print(dat)
                                   compound          outcomemeasure  measvalue
1  C=C1CC[C@@H]2[C@](C)(CO)[C@H](O)CC[C@@]2(C)[C@@H]1C/C=C1/C(=O)OC[C@H]1O [andrographolide]  concentration at 2.5 h       3.17
2  C=C1CC[C@@H]2[C@](C)(CO)[C@H](O)CC[C@@]2(C)[C@@H]1CCC1=CCOC1=O [14-deoxyandrographolide]  concentration at 2.5 h       3.66

Now turn to the next compound.
**Q:** Give its concentration at 2.5 h value. Item: C=C1CC[C@@H]2[C@](C)(CO[C@@H]3O[C@H](CO)[C@@H](O)[C@H](O)[C@H]3O)CCC[C@@]2(C)[C@@H]1CCC1=CCOC1=O [neoandrographolide]
**A:** 65.8

---

Please go through the items and note down their concentration at 5 h.
# testMethodNotes: Clinical pharmacokinetics, plasma LC-MS/MS after single oral dose of AP capsules
# Assay type: in vivo, human (healthy volunteers)
# assaySetup: human, plasma, oral, 2000 mg, mean n=5; 5.00 h; 2000 mg AP capsules; read-out: Mean concentration
Give bare numbers, in ng/mL.

Past entries and their recorded results:
> print(dat)
                                   compound        outcomemeasure  valueunit  measvalue
1  C=C1CC[C@@H]2[C@](C)(CO)[C@H](O)CC[C@@]2(C)[C@@H]1C/C=C1/C(=O)OC[C@H]1O [andrographolide]  concentration at 5 h      ng/mL       0.32
2  C=C1CC[C@@H]2[C@](C)(CO[C@@H]3O[C@H](CO)[C@@H](O)[C@H](O)[C@H]3O)CCC[C@@]2(C)[C@@H]1CCC1=CCOC1=O [neoandrographolide]  concentration at 5 h      ng/mL       11.5

**Q:** For C=C1CC[C@@H]2[C@](C)(CO)[C@H](O)CC[C@@]2(C)[C@@H]1CCC1=CCOC1=O [14-deoxyandrographolide] , what is its reported concentration at 5 h?
**A:** 1.36

---

Answer each item with its documented concentration at 1.5 h.
# testMethodNotes: Clinical pharmacokinetics, plasma LC-MS/MS after single oral dose of AP capsules
# Assay type: in vivo, human (healthy volunteers)
# assaySetup: human, plasma, oral, 2000 mg, S1; 1.50 h; 2000 mg AP capsules; read-out: Plasma concentration
Numbers only, in ng/mL.

> print(dat)
                                   molecule  measvalue
1  C=C1CC[C@@H]2[C@](C)(CO)[C@H](O)CC[C@@]2(C)[C@@H]1CCC1=CCOC1=O [14-deoxyandrographolide]       7.71
2  C=C1CC[C@@H]2[C@](C)(CO[C@@H]3O[C@H](CO)[C@@H](O)[C@H](O)[C@H]3O)CCC[C@@]2(C)[C@@H]1CCC1=CCOC1=O [neoandrographolide]       41.4

Moving on to the next molecule.
**Q:** Item C=C1CC[C@@H]2[C@](C)(CO)[C@H](O)CC[C@@]2(C)[C@@H]1C/C=C1/C(=O)OC[C@H]1O [andrographolide] has what recorded concentration at 1.5 h?
**A:** 6.36

---

# testMethodNotes: Clinical pharmacokinetics, plasma LC-MS/MS after single oral dose of AP capsules
# Type: in vivo, human (healthy volunteers)
# assaySetup: human, plasma, oral, 2000 mg, S1; 10.00 h; 2000 mg AP capsules; read-out: Plasma concentration
Kindly state concentration at 10 h for each of the entries shown.
One number for each entry, in ng/mL.

Observe how each entry below is paired with its result.
> print(dat)
                                   compound  measvalue
1  C=C1CC[C@@H]2[C@](C)(CO)[C@H](O)CC[C@@]2(C)[C@@H]1CCC1=CCOC1=O [14-deoxyandrographolide]          0
2  C=C1CC[C@@H]2[C@](C)(CO)[C@H](O)CC[C@@]2(C)[C@@H]1C/C=C1/C(=O)OC[C@H]1O [andrographolide]          0

Now consider a different compound.
**Q:** concentration at 10 h for C=C1CC[C@@H]2[C@](C)(CO[C@@H]3O[C@H](CO)[C@@H](O)[C@H](O)[C@H]3O)CCC[C@@]2(C)[C@@H]1CCC1=CCOC1=O [neoandrographolide] ?
**A:** 0

---

Please provide measured concentration at 2 h for the entries that follow.
# testMethodNotes: Clinical pharmacokinetics, plasma LC-MS/MS after single oral dose of AP capsules
# Assay type: in vivo, human (healthy volunteers)
# assaySetup: human, plasma, oral, 2000 mg, mean n=5; 2.00 h; 2000 mg AP capsules; read-out: Mean concentration
One number for each entry, in ng/mL.

> print(dat)
                                   compound  valueunit  measvalue
1  C=C1CC[C@@H]2[C@](C)(CO)[C@H](O)CC[C@@]2(C)[C@@H]1C/C=C1/C(=O)OC[C@H]1O [andrographolide]      ng/mL       6.21
2  C=C1CC[C@@H]2[C@](C)(CO)[C@H](O)CC[C@@]2(C)[C@@H]1CCC1=CCOC1=O [14-deoxyandrographolide]      ng/mL       4.27

With those in mind, consider the next compound.
**Q:** Look up concentration at 2 h for this compound: C=C1CC[C@@H]2[C@](C)(CO[C@@H]3O[C@H](CO)[C@@H](O)[C@H](O)[C@H]3O)CCC[C@@]2(C)[C@@H]1CCC1=CCOC1=O [neoandrographolide]
**A:** 49.9

---

Task for the reader: assign each of the following compounds its reported concentration at 1 h.
# testMethodNotes: Clinical pharmacokinetics, plasma LC-MS/MS after single oral dose of AP capsules
# Format: in vivo, human (healthy volunteers)
# assaySetup: human, plasma, oral, 2000 mg, mean n=5; 1.00 h; 2000 mg AP capsules; read-out: Mean concentration

> print(dat)
                                   compound   measvalue
1  C=C1CC[C@@H]2[C@](C)(CO)[C@H](O)CC[C@@]2(C)[C@@H]1CCC1=CCOC1=O [14-deoxyandrographolide]  5.94 ng/mL

Could I get concentration at 1 h for every one of these entries?
1. C=C1CC[C@@H]2[C@](C)(CO)[C@H](O)CC[C@@]2(C)[C@@H]1C/C=C1/C(=O)OC[C@H]1O [andrographolide]
2. C=C1CC[C@@H]2[C@](C)(CO[C@@H]3O[C@H](CO)[C@@H](O)[C@H](O)[C@H]3O)CCC[C@@]2(C)[C@@H]1CCC1=CCOC1=O [neoandrographolide]

**A:**
7.7 ng/mL
42.1 ng/mL

---

# testMethodNotes: Clinical pharmacokinetics, plasma LC-MS/MS after single oral dose of AP capsules
# Format: in vivo, human (healthy volunteers)
# assaySetup: human, plasma, oral, 2000 mg, S2; 12.00 h; 2000 mg AP capsules; read-out: Plasma concentration
# Experimental: The protocol was published (Tee et al. [2022]). Seven calibrators ranging from 1, 2, 5,10, 20, 50, and 100 ng mL^−1 were prepared. […] Pharmacokinetic parameters were determined from plasma samples (5 subjects, 15 time points) analyzed via LC–MS/MS (Shimadzu 8060NX). […]
Consider the following molecules; for each one, report its concentration at 12 h.

Recorded results for 2 molecules are shown here.
> print(dat)
                                   molecule  measvalue
1  C=C1CC[C@@H]2[C@](C)(CO[C@@H]3O[C@H](CO)[C@@H](O)[C@H](O)[C@H]3O)CCC[C@@]2(C)[C@@H]1CCC1=CCOC1=O [neoandrographolide]    0 ng/mL
2  C=C1CC[C@@H]2[C@](C)(CO)[C@H](O)CC[C@@]2(C)[C@@H]1C/C=C1/C(=O)OC[C@H]1O [andrographolide]    0 ng/mL

Note: attention shifts to another entry.
**Q:** concentration at 12 h for C=C1CC[C@@H]2[C@](C)(CO)[C@H](O)CC[C@@]2(C)[C@@H]1CCC1=CCOC1=O [14-deoxyandrographolide] ?
**A:** 0 ng/mL

---

# testMethodNotes: Clinical pharmacokinetics, plasma LC-MS/MS after single oral dose of AP capsules
# Format: in vivo, human (healthy volunteers)
# assaySetup: human, plasma, oral, 2000 mg, mean n=5; 2.50 h; 2000 mg AP capsules; read-out: Mean concentration
Answer each item with its documented concentration at 2.5 h.
One number for each entry, in ng/mL.

// worked examples, concentration at 2.5 h included
> print(dat)
                                   compound  valueunit  measvalue
1  C=C1CC[C@@H]2[C@](C)(CO)[C@H](O)CC[C@@]2(C)[C@@H]1C/C=C1/C(=O)OC[C@H]1O [andrographolide]      ng/mL        3.4
2  C=C1CC[C@@H]2[C@](C)(CO)[C@H](O)CC[C@@]2(C)[C@@H]1CCC1=CCOC1=O [14-deoxyandrographolide]      ng/mL       3.54

Let us examine a further case.
**Q:** Requested field: concentration at 2.5 h. Item: C=C1CC[C@@H]2[C@](C)(CO[C@@H]3O[C@H](CO)[C@@H](O)[C@H](O)[C@H]3O)CCC[C@@]2(C)[C@@H]1CCC1=CCOC1=O [neoandrographolide]
**A:** 34.9
